MEASURED TARGET: Peroxisome proliferator-activated receptor gamma (Homo sapiens)
MEASUREMENT DESCRIPTION: qHTS assay to identify small molecule agonists of the peroxisome proliferator-activated receptor gamma (PPARg) signaling pathway (AID 743094)
TEST CONTEXT: HEK293H PPARg-UAS-bla, beta-lactamase FRET ratio, 17 h; series mostly up to 57 µM
Records with an inconclusive call do not appear. Activity calls are given as the source filed them. Calls follow the shape of the dose curve; as a rule, active = well fitted activation curve with a large enough effect in the signal ratio in the repeat runs (not every such curve was filed as active); inconclusive = weak or mixed curves, or effect the other way; inactive = no such curve, though single readings can be large or run the other way; the % refers to the signal ratio.
READOUT KIND: outcome

>  <MOLECULE>
CC(=O)C(C)O (configuration not stated)

>  <RESULT>
inactive

$$$$
>  <MOLECULE>
Cc1ccc(N)cc1S(=O)(=O)O

>  <RESULT>
inactive

$$$$
>  <MOLECULE>
CCCSSCCC

>  <RESULT>
inactive

$$$$
>  <MOLECULE>
CC(=O)O[C@H]1C[C@@H]2CC[C@@]1(C)C2(C)C

>  <RESULT>
inactive

$$$$
>  <MOLECULE>
COc1nc(N)nc2nc[nH]c12

>  <RESULT>
inactive

$$$$
>  <MOLECULE>
CC(=O)CCC1=C(C)CCCC1(C)C

>  <RESULT>
inactive

$$$$
>  <MOLECULE>
COC(=O)c1cccc(Cl)c1

>  <RESULT>
inactive

$$$$
>  <MOLECULE>
CN(C)C(C)(C)CO

>  <RESULT>
inactive

$$$$
>  <MOLECULE>
CCCCCC(C)O (configuration not stated)

>  <RESULT>
inactive

$$$$
>  <MOLECULE>
CC(C)(C)NC[C@H](O)COc1cccc2c1CCCC2=O

>  <RESULT>
inactive

$$$$
>  <MOLECULE>
Nc1nnnn1-c1ccccc1

>  <RESULT>
inactive

$$$$
>  <MOLECULE>
O=C(CCCCC(=O)Nc1c(I)cc(I)c(C(=O)O)c1I)Nc1c(I)cc(I)c(C(=O)O)c1I

>  <RESULT>
inactive

$$$$
>  <MOLECULE>
N#CCC(=O)NN

>  <RESULT>
inactive

$$$$
>  <MOLECULE>
CCCCCCCCCOC(=O)CCCCC(=O)OCCCCCCC

>  <RESULT>
inactive

$$$$
>  <MOLECULE>
CC/C=C\CCOC(=O)c1ccccc1O

>  <RESULT>
inactive

$$$$
>  <MOLECULE>
COc1c2occc2c(OC)c2c(=O)cc(C)oc12

>  <RESULT>
inactive

$$$$
>  <MOLECULE>
CO[Si](CCCn1c(=O)n(CCC[Si](OC)(OC)OC)c(=O)n(CCC[Si](OC)(OC)OC)c1=O)(OC)OC

>  <RESULT>
inactive

$$$$
>  <MOLECULE>
C=CCCCCCCCCC(=O)OCCCC

>  <RESULT>
inactive

$$$$
>  <MOLECULE>
CCCCC1CCC(O)CC1 (configuration not stated)

>  <RESULT>
inactive

$$$$
>  <MOLECULE>
Cc1ccc(C(C)NC(=O)[C@@H](NC(=O)OC(C)C)C(C)C)cc1 (some centres not stated)

>  <RESULT>
inactive

$$$$
>  <MOLECULE>
CCCCCCCCCCCCCCC(=O)NC(CO)CCCCCCCCCCCCCC (configuration not stated)

>  <RESULT>
inactive

$$$$
>  <MOLECULE>
Cc1c(N)cccc1Cl

>  <RESULT>
inactive

$$$$
>  <MOLECULE>
CO[C@@]1(NC(=O)Cc2cccs2)C(=O)N2C(C(=O)O)=C(COC(N)=O)CS[C@@H]21

>  <RESULT>
inactive

$$$$
>  <MOLECULE>
CN(C)CCOC(=O)C(c1ccccc1)C1(O)CCCC1 (configuration not stated)

>  <RESULT>
inactive

$$$$
>  <MOLECULE>
CCC(C)OC(C)CC (configuration not stated)

>  <RESULT>
inactive

$$$$
>  <MOLECULE>
C=CC(=O)OCC1CCCO1 (configuration not stated)

>  <RESULT>
inactive

$$$$
>  <MOLECULE>
O=C(O)CSCC(=O)NC1CCSC1=O (configuration not stated)

>  <RESULT>
inactive

$$$$
>  <MOLECULE>
C=CCCCC

>  <RESULT>
inactive

$$$$
>  <MOLECULE>
O=C1CCC(=O)N1Cl

>  <RESULT>
inactive

$$$$
>  <MOLECULE>
CC1CCc2c(N3CCC(O)CC3)c(F)cc3c(=O)c(C(=O)O)cn1c23 (configuration not stated)

>  <RESULT>
inactive

$$$$
>  <MOLECULE>
CC1(C)[C@H]2CC[C@](C)(C2)[C@H]1O

>  <RESULT>
inactive

$$$$
>  <MOLECULE>
NCc1ccc(S(N)(=O)=O)cc1

>  <RESULT>
inactive

$$$$
>  <MOLECULE>
Cc1cccc(Cl)c1

>  <RESULT>
inactive

$$$$
>  <MOLECULE>
C[C@H]1[C@@H](c2ccccc2)NC(=O)N1C

>  <RESULT>
inactive

$$$$
>  <MOLECULE>
CN1C[C@@H]2C[C@H]1CN2c1cc2c(cc1F)c(=O)c(C(=O)O)cn2C1CC1

>  <RESULT>
inactive

$$$$
>  <MOLECULE>
CCC[C@@H]1C[C@@H](C(=O)N[C@@H]([C@H]2O[C@H](SC)[C@H](O)[C@@H](O)[C@H]2O)[C@@H](C)O)N(C)C1

>  <RESULT>
inactive

$$$$
>  <MOLECULE>
C=C(C)C1CC=C(C)C(=O)C1 (configuration not stated)

>  <RESULT>
inactive

$$$$
>  <MOLECULE>
CCC(C)C(C)=O (configuration not stated)

>  <RESULT>
inactive

$$$$
>  <MOLECULE>
CN(C)CCCO[C@@H]1[C@H]2OC(C)(C)O[C@H]2O[C@@H]1C(O)CO (some centres not stated)

>  <RESULT>
inactive

$$$$
>  <MOLECULE>
CCCCCCCCCCOC(C)=O

>  <RESULT>
inactive

$$$$
>  <MOLECULE>
CN(C)CCN(C)CCO

>  <RESULT>
inactive

$$$$
>  <MOLECULE>
CC(=O)O[Si](C)(OC(C)=O)OC(C)=O

>  <RESULT>
inactive

$$$$
>  <MOLECULE>
CC12CCC(C1)C(C)(C)C2O (configuration not stated)

>  <RESULT>
inactive

$$$$
>  <MOLECULE>
OCC1CCC(CO)CC1 (configuration not stated)

>  <RESULT>
inactive

$$$$
>  <MOLECULE>
CC1(C)CC(OC(=O)CCCCCCCCC(=O)OC2CC(C)(C)NC(C)(C)C2)CC(C)(C)N1

>  <RESULT>
inactive

$$$$
>  <MOLECULE>
CCCC(=O)OC/C=C(\C)CCC=C(C)C

>  <RESULT>
inactive

$$$$
>  <MOLECULE>
O=C(Cn1ccnc1[N+](=O)[O-])NCc1ccccc1

>  <RESULT>
inactive

$$$$
>  <MOLECULE>
CCCC(CC)c1ccccc1 (configuration not stated)

>  <RESULT>
inactive

$$$$
>  <MOLECULE>
C=CCOC(=O)CCCCCC

>  <RESULT>
inactive

$$$$
>  <MOLECULE>
CC(C)COC(=O)c1ccccc1

>  <RESULT>
inactive

$$$$
>  <MOLECULE>
O=C(O)c1cc2ccccc2nc1C(=O)O

>  <RESULT>
inactive

$$$$
>  <MOLECULE>
O=Cc1cc2ccccc2o1

>  <RESULT>
inactive

$$$$
>  <MOLECULE>
Cc1cc(-c2ccccc2)nnc1NCCN1CCOCC1

>  <RESULT>
inactive

$$$$
>  <MOLECULE>
CC/C(C)=N\O[Si](C)(O/N=C(\C)CC)O/N=C(\C)CC

>  <RESULT>
inactive

$$$$
>  <MOLECULE>
C=Cc1ccc(C(C)(C)C)cc1

>  <RESULT>
inactive

$$$$
>  <MOLECULE>
O=C(NCN1CCOCC1)c1cnccn1

>  <RESULT>
inactive

$$$$
>  <MOLECULE>
CC(=O)OC1CCCCC1C(C)(C)C (configuration not stated)

>  <RESULT>
inactive

$$$$
